Listed here: items and their measured C0.
measurement.protocol: Plasma pharmacokinetics in rats, single intravenous or oral administration
Assay type: in vivo, rat (male Wistar)
measurement.conditions: male, Wistar, rat, plasma; rats, intravenous 0.25 mg/kg in 5% DMSO-7.5% Solutol HS15-87.5% normal saline
reported.endpoint: C0 (ng/mL)

mol.smiles: COCCOCCOCCOc1cc(Nc2nccc(Oc3ccc(NC(=O)Nc4cc(C(C)(C)C)cc(NS(C)(=O)=O)c4OC)c4ccccc34)n2)cc(OC)c1
reported.measurement: 3040

mol.smiles: COc1c(NC(=O)Nc2ccc(Oc3ccnc(Nc4ccccc4)c3)c3ccccc23)cc(C(C)(C)C)cc1C(=O)NC1COC1
reported.measurement: 4000

mol.smiles: COc1cc(Nc2cc(Oc3ccc(NC(=O)Nc4cc(C(C)(C)C)cc(NS(C)(=O)=O)c4OC)c4ccccc34)ccn2)cc(C(=O)NCCN2CCOCC2)c1
reported.measurement: 3880

mol.smiles: COCCOCCOCCNC(=O)c1cc(Nc2cc(Oc3ccc(NC(=O)Nc4cc(C(C)(C)C)cc(NS(C)(=O)=O)c4OC)c4ccccc34)ccn2)cc(OC)c1
reported.measurement: 4380

mol.smiles: CNC(=O)c1cc(C(C)(C)C)cc(NC(=O)Nc2ccc(Oc3ccnc(Nc4cc(OC)cc(OCCOCCOCCOC)c4)c3)c3ccccc23)c1OC
reported.measurement: 2500

* * *

number of individual kinase hits, S(1) values by entry
Test system: non-mutant kinases
Format: binding
measurement.conditions: 500 nM; non-mutant kinases with % Ctrl <1

compound: COc1c(NC(=O)Nc2ccc(Oc3ccnc(Nc4ccccc4)c3)c3ccccc23)cc(C(C)(C)C)cc1C(=O)NC1COC1 [Example 75]
number of individual kinase hits, S(1): 15
//
compound: COCC(=O)Nc1cc(Oc2ccc(NC(=O)Nc3cc(C(C)(C)C)nn3-c3ccc(C)cc3)c3ccccc23)ccn1 [Reference Compound, reference compound]
number of individual kinase hits, S(1): 45
//
compound: C#Cc1cc(Nc2nccc(Oc3ccc(NC(=O)Nc4cc(C(C)(C)C)cc(NS(C)(=O)=O)c4OC)c4ccccc34)n2)cc(C(=O)NCCOCCOCCOC)c1 [Example 16]
number of individual kinase hits, S(1): 15
//
compound: COCCOCCOCCNC(=O)c1cc(Nc2cc(Oc3ccc(NC(=O)Nc4cc(C(C)(C)C)cc(NS(C)(=O)=O)c4OC)c4ccccc34)ccn2)cc(OC)c1 [Example 3]
number of individual kinase hits, S(1): 18

* * *

Each item that follows carries a reported Kd.
system.under.test: Lck (Homo sapiens (Human), UniProt P06239)
Sequence (P06239 whole entry): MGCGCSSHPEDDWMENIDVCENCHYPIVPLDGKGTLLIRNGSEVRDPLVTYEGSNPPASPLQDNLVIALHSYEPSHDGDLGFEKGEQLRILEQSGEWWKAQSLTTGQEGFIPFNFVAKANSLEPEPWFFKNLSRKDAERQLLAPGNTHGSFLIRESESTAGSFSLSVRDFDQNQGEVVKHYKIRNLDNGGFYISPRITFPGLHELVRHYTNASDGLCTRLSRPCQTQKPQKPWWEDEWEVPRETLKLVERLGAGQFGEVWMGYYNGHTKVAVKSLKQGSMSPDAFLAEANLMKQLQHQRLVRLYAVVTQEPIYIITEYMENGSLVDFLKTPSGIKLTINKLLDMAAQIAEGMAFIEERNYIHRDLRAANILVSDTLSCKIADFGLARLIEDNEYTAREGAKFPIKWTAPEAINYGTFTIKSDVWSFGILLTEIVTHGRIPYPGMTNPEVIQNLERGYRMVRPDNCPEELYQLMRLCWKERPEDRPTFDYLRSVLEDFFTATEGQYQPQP

compound: COCCOCCOCCOc1cc(Nc2nccc(Oc3ccc(NC(=O)Nc4cc(C(C)(C)C)cc(NS(C)(=O)=O)c4OC)c4ccccc34)n2)cc(OC)c1 [Example 4]
Kd, nM: 3
//
compound: COc1c(NC(=O)Nc2ccc(Oc3ccnc(Nc4ccccc4)c3)c3ccccc23)cc(C(C)(C)C)cc1C(=O)NC1COC1 [Example 75]
Kd, nM: 2.5
//
compound: COCCOCCOCCNC(=O)c1cc(Nc2cc(Oc3ccc(NC(=O)Nc4cc(C(C)(C)C)cc(NS(C)(=O)=O)c4OC)c4ccccc34)ccn2)cc(OC)c1 [Example 3]
Kd, nM: 2.3
//
compound: COc1cc(Nc2cc(Oc3ccc(NC(=O)Nc4cc(C(C)(C)C)cc(NS(C)(=O)=O)c4OC)c4ccccc34)ccn2)cc(C(=O)NCCN2CCOCC2)c1 [Example 27]
Kd, nM: 4.3
